Cited source: the supplement of paper PMC12338614

B1: library; numbered along this chain (parent)
chain: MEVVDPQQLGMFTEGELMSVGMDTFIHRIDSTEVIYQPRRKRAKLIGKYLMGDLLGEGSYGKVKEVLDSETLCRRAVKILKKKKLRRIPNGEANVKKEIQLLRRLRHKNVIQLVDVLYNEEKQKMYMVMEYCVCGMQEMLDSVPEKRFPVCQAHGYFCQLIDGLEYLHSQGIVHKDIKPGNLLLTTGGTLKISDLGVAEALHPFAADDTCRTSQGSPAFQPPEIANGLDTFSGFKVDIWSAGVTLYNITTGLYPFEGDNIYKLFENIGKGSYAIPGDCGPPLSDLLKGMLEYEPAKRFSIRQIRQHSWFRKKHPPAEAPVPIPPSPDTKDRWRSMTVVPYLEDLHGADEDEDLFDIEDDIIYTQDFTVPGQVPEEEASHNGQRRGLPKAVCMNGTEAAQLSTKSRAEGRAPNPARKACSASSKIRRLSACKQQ

- Variants of: B1
- PROCEDURE DETAILS: STK11 functional score (HeLa growth suppression), rescaled enrichment; synonymous median = 1, nonsense median = 0 (normalised score)
- MEASUREMENT CONDITIONS: with HeLa; variant type: missense
ATTRIBUTE MEASURED: STK11 functional score
I'd appreciate a reply containing only the number, no unit.

The measured STK11 functional score associated with L72G reads 1.44

The measured STK11 functional score associated with V66S reads 0.975

The measured STK11 functional score associated with L290V reads 0.625

The measured STK11 functional score associated with D343V reads 1.21

The measured STK11 functional score associated with L344S reads 1.43

The measured STK11 functional score associated with Y292G reads 1.45

The measured STK11 functional score associated with T71C reads 1.33

The measured STK11 functional score associated with D208M reads 1.7

The measured STK11 functional score associated with E65H reads 1.36

The measured STK11 functional score associated with D5N reads 1.24

The measured STK11 functional score associated with D365R reads 1.61

The measured STK11 functional score associated with Q399R reads 0.852

The measured STK11 functional score associated with S325R reads 1.58

The measured STK11 functional score associated with E138M reads 1.27

The measured STK11 functional score associated with M51T reads 1.21

The measured STK11 functional score associated with L282P reads 0.541

The measured STK11 functional score associated with H345L reads 1.2

The measured STK11 functional score associated with N94G reads 0.953

The measured STK11 functional score associated with T209W reads 1.28

The measured STK11 functional score associated with I248F reads 0.497

The measured STK11 functional score associated with F264E reads 1.57

The measured STK11 functional score associated with Y261V reads 1.22

The measured STK11 functional score associated with V243T reads 1.29

The measured STK11 functional score associated with H379E reads 0.586

The measured STK11 functional score associated with S232A reads 1.04

The measured STK11 functional score associated with L45G reads 1.25

The measured STK11 functional score associated with P373F reads 1.26

The measured STK11 functional score associated with L117S reads 0.291

The measured STK11 functional score associated with P323H reads 1.42

The measured STK11 functional score associated with E375T reads 0.94

The measured STK11 functional score associated with V34F reads 0.976

The measured STK11 functional score associated with E351H reads 0.374

The measured STK11 functional score associated with L55Q reads 1.59

The measured STK11 functional score associated with V3F reads 0.991

The measured STK11 functional score associated with N393E reads 1.48

The measured STK11 functional score associated with Q37T reads 1.69

The measured STK11 functional score associated with L80S reads 0.479
